molecular target: HLA-A*02:06; experiment: IEDB peptide-MHC binding, purified MHC/competitive/radioactivity; filed as Kd, often an IC50 or EC50 that approximates it; bounds were set here for any values at or beyond the usual limits of such assays; settings: source organism: Lassa virus Josiah
MEASURE NAME: pKd
Just the number, please; pKd means minus log10 of the concentration in mol/L.

pKd in this record for `ALMDCIMFDA` : 7.47

====

biological target: HLA-B*18:01; assay: IEDB peptide-MHC binding, purified MHC/direct/fluorescence; filed as Kd, often an IC50 or EC50 that approximates it; bounds were set here for any values at or beyond the usual limits of such assays; conditions: source organism: Orthohantavirus andesense
MEASURE NAME: Kd

Noted Kd for `YRRKLTNPA` , tested on HLA-B*18:01: ≥ 20 µM

====

target: HLA-B*27:03; experiment: IEDB peptide-MHC binding, purified MHC/competitive/fluorescence; filed as Kd, often an IC50 or EC50 that approximates it; bounds were set here for any values at or beyond the usual limits of such assays; conditions: source organism: Lechiguanas virus
MEASURE NAME: Kd

Kd in this record for `YRRKLTNPA` : ≥ 20 µM

====

biological target: HLA-B*46:01; test: IEDB peptide-MHC binding, purified MHC/competitive/fluorescence; filed as Kd, often an IC50 or EC50 that approximates it; bounds were set here for any values at or beyond the usual limits of such assays; conditions: source organism: Burkholderia orbicola
pKd: −log10 of the molar value.
MEASURE NAME: pKd

pKd in this record for `RIEQLYPFA` : ≤ 4.70

====

Catalogue of pKd values
target: HLA-A*01:01; experiment: IEDB peptide-MHC binding, purified MHC/competitive/radioactivity; filed as Kd, often an IC50 or EC50 that approximates it; bounds were set here for any values at or beyond the usual limits of such assays; conditions: source organism: SARS coronavirus Tor2
Just the number, please; pKd means minus log10 of the concentration in mol/L.

Use these answered entries as a reference point.
[[record]]
sequence_text = "LLEKCDLQNY"
measure_name = "pKd"
recorded_result = 7.15

[[record]]
sequence_text = "FSGALDTTSY"
measure_name = "pKd"
recorded_result = 5.88

[[record]]
sequence_text = "HFAIGLALYY"
measure_name = "pKd"
recorded_result = 5.63


pKd in this record for `DNAFNCTFEY` : 5.37

pKd in this record for `CKDGHVETFY` : 5.09

pKd in this record for `MYIFFASFYY` : 5.17

pKd in this record for `KSFEIDKGIY` : 6.11

pKd in this record for `FDEISMATNY` : 4.89

====

molecular target: HLA-B*08:01; test: IEDB peptide-MHC binding, purified MHC/direct/fluorescence; filed as Kd, often an IC50 or EC50 that approximates it; bounds were set here for any values at or beyond the usual limits of such assays; conditions: source organism: Coxiella burnetii Q321
MEASURE NAME: Kd (nM)
Output spec: scalar in nM, unitless text.

Noted Kd for `YLKAKREKL` , tested on HLA-B*08:01: 143

====

molecular target: HLA-B*15:01; experiment: IEDB peptide-MHC binding, purified MHC/direct/fluorescence; filed as Kd, often an IC50 or EC50 that approximates it; bounds were set here for any values at or beyond the usual limits of such assays; settings: source organism: Serratia marcescens
MEASURE NAME: Kd

Kd in this record for `LIPDGDGEV` : ≥ 20 µM
